- METHOD: A CellTox Green Cytotoxicity Assay to monitor cytotoxicity in HEK293 cells - 16 hour (AID 1224888); further: nearly all actives have a fitted effect of over 35% in size
- EXPERIMENTAL_CONTEXT: CellTox Green fluorescence; series mostly up to 76.8 µM
Results filed as inconclusive are left out. The source made the active and inactive calls. The call rests on the fitted dose curve; in most records, active means well fitted activation curve with a large enough effect in the repeat runs; inconclusive means weak or mixed curves; inactive means flat fitted curve, though single readings scatter.
Permitted responses: active, inactive

These recorded examples may help you get a feel for the data.
CCCCCCCCCCCCCCCCCC[N+](C)(C)Cc1ccccc1 ... active
CSc1ccc(C(=O)c2[nH]c(=O)[nH]c2C)cc1 ... inactive
CNc1ccc(O)cc1 ... inactive
Cc1onc(-c2ccccc2Cl)c1C(=O)N[C@@H]1C(=O)N2[C@@H]1SC(C)(C)[C@@H]2C(=O)O ... inactive
CCCCCOc1ccccc1/C(=C\SC)n1ccnc1 ... inactive

Challenge: # lookup: test call for `CN(C)C(=O)C1(N2CCCCC2)CCN(CC[C@@]2(c3ccc(Cl)c(Cl)c3)CN(C(=O)c3ccccc3)CCO2)CC1`
Response given: active

Challenge: # lookup: test call for `Cc1cc(O)c(C(C)(C)C)cc1C(C)(C)C`
Response given: active
